Assay: Clearance in rat at 1 mg/kg, iv
Assay type: ADME, organism-based
Set-up: dose 1 mg/kg, route intravenous
Conditions: in vivo

{"columns": ["smiles text", "clearance, mL/min/kg"],
 "data": [
  ["CCc1nc2c(C)cc(CC(C)C)nc2n1[C@H]1CCc2cc(-c3ccccc3-c3nnn[nH]3)ccc21", 14]
]}

----------
Target: Type-1 angiotensin II receptor (Homo sapiens, UniProt P30556)
Sequence (P30556 whole entry): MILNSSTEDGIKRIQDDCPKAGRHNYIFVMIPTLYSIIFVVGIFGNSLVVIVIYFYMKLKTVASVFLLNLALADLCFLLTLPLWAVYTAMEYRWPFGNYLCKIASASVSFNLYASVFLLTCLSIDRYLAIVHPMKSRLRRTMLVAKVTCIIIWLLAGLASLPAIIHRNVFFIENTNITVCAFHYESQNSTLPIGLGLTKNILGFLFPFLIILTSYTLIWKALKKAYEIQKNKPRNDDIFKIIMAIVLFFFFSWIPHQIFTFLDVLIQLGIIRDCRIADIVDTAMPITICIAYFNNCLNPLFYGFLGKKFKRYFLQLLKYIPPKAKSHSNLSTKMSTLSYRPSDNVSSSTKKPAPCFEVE

{"columns": ["smiles text", "Ki"],
 "data": [
  ["CCc1nc2c(C)cc(CC(C)C)nc2n1[C@H]1CCc2cc(-c3ccccc3-c3nnn[nH]3)ccc21", "690 pM"]
]}

----------
Target: Peroxisome proliferator-activated receptor gamma (Homo sapiens, UniProt P37231)
Sequence (P37231 whole entry): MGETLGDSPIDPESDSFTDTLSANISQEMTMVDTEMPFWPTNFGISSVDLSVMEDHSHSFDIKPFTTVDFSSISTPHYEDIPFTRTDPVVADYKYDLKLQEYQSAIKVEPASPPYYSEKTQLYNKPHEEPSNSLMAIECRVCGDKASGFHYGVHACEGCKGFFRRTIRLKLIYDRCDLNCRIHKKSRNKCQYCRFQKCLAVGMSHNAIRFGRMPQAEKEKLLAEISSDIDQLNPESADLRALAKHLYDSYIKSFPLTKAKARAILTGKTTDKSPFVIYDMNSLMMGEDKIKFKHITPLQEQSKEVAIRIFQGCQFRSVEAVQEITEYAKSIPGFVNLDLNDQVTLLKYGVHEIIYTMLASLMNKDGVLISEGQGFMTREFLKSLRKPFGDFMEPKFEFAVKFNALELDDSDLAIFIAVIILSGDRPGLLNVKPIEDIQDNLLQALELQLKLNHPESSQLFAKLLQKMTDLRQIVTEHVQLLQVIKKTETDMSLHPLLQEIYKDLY
Test: Partial agonist activity at human PPARgamma-LBD/Gal4 DNA binding domain by transactivation assay
pEC50: −log10 of the molar value.
Lab note: compare pEC50 against 6. Equal or greater, write 1 (yes). Smaller, write 0 (no).

{"columns": ["molecule", "assigned class"],
 "data": [
  ["CCc1nc2c(C)cc(C)nc2n1[C@@H]1CCc2cc(-c3ccccc3-c3nnn[nH]3)ccc21", "0 (no)"],
  ["CCc1nc2c(C)c(C)c(C)nc2n1[C@H]1CCc2cc(-c3ccccc3-c3nnn[nH]3)ccc21", "0 (no)"],
  ["CCc1nc2c(C)cc(C)nc2n1Cc1ccc(-c2ccccc2-c2nnn[nH]2)cc1", "0 (no)"],
  ["CCc1nc2c(C)cc(C)nc2n1[C@H]1CCc2cc(-c3ccccc3-c3nnn[nH]3)ccc21", "1 (yes)"],
  ["CCCCc1nc2c(C)cc(C)nc2n1C1CCc2cc(-c3ccccc3-c3nn[nH]n3)ccc21 (racemic)", "0 (no)"]
]}

----------
Target: Type-1 angiotensin II receptor (Homo sapiens)
Test: Displacement of [125I]Tyr4-Sar1,Ile8-Angiotensin II from human Angiotensin 1 receptor after 60 mins by scintillation counting
pIC50: −log10 of the molar value.
Here, each record is paired with measured pIC50 data.

{"columns": ["molecule", "pIC50"],
 "data": [
  ["CCc1nc2c(C)cc(C)nc2n1[C@H]1CCc2cc(-c3ccccc3-c3nnn[nH]3)ccc21", 8.12],
  ["CCc1nc2c(CC(C)C)cc(C)nc2n1[C@H]1CCc2cc(-c3ccccc3-c3nnn[nH]3)ccc21", 6.13],
  ["CCc1nc2c(C)cc(C)nc2n1[C@@H]1CCc2cc(-c3ccccc3-c3nnn[nH]3)ccc21", 6.18],
  ["CCCCc1nc2c(C)cc(C)nc2n1C1CCc2cc(-c3ccccc3-c3nn[nH]n3)ccc21 (racemic)", 6.62],
  ["CCc1nc2c(C)cc(CC(C)C)nc2n1[C@H]1CCc2cc(-c3ccccc3C(=O)O)ccc21", 7.98],
  ["CCc1nc2c(C)cc(CC(C)C)nc2n1[C@H]1CCc2cc(-c3ccccc3-c3nnn[nH]3)ccc21", 8.80],
  ["CCc1c(C)nc2c(nc(CC)n2[C@H]2CCc3cc(-c4ccccc4-c4nnn[nH]4)ccc32)c1C", 7.80],
  ["CCc1nc2c(C)cc(Cc3ccccc3)nc2n1[C@H]1CCc2cc(-c3ccccc3-c3nnn[nH]3)ccc21", 8.28],
  ["Cc1cc(CC(C)C)nc2c1nc(C(C)C)n2[C@H]1CCc2cc(-c3ccccc3-c3nnn[nH]3)ccc21", 8.46],
  ["CCc1nc2c(C)cc(C)nc2n1C1CCc2cc(-c3ccccc3-c3nn[nH]n3)ccc21 (racemic)", 7.02]
]}

----------
Assay: Cmax in ZDF rat at 100 mg/kg, po
Format: ADME, organism-based
Design: dose 100 mg/kg, route oral
Settings: in vivo

{"columns": ["smiles text", "Cmax (µg/mL)"],
 "data": [
  ["CCc1nc2c(C)cc(CC(C)C)nc2n1[C@H]1CCc2cc(-c3ccccc3-c3nnn[nH]3)ccc21", 177]
]}

----------
Experiment: AUC in SHR rat at 1 mg/kg, po
Format: ADME, organism-based
Design: dose 1 mg/kg, route oral
Conditions: plasma
value type: AUC

{"columns": ["smiles text", "value"],
 "data": [
  ["CCc1nc2c(C)cc(CC(C)C)nc2n1[C@H]1CCc2cc(-c3ccccc3-c3nnn[nH]3)ccc21", "320 ng·h/mL"]
]}

----------
Assay: Half life in rat at 1 mg/kg, iv
Assay type: ADME, organism-based
Set-up: dose 1 mg/kg, route intravenous
Settings: in vivo

{"columns": ["smiles text", "half-life"],
 "data": [
  ["CCc1nc2c(C)cc(CC(C)C)nc2n1[C@H]1CCc2cc(-c3ccccc3-c3nnn[nH]3)ccc21", "2.1 h"]
]}

----------
Test: Cmax in SHR rat at 1 mg/kg, po
Type: ADME, organism-based
Parameters: dose 1 mg/kg, route oral
Details: in vivo
value type: Cmax (ng/mL)

{"columns": ["smiles text", "value"],
 "data": [
  ["CCc1nc2c(C)cc(CC(C)C)nc2n1[C@H]1CCc2cc(-c3ccccc3-c3nnn[nH]3)ccc21", 74]
]}

----------
Here, each record is paired with measured EC50 data.
Target: Peroxisome proliferator-activated receptor gamma (Homo sapiens, UniProt P37231)
Assay: Partial agonist activity at human PPARgamma-LBD/Gal4 DNA binding domain by transactivation assay
value type: EC50 (µM)

{"columns": ["smiles text", "unit info", "value"],
 "data": [
  ["Cc1cc(C)c2nc(C3CC3)n([C@H]3CCc4cc(-c5ccccc5-c5nnn[nH]5)ccc43)c2n1", "µM", 0.762],
  ["CCCc1nc2c(C)cc(C)nc2n1[C@H]1CCc2cc(-c3ccccc3-c3nnn[nH]3)ccc21", "µM", 1.32],
  ["CCc1c(C)nc2c(nc(CC)n2[C@H]2CCc3cc(-c4ccccc4-c4nnn[nH]4)ccc32)c1C", "µM", 1.34]
]}
